B1: library; a variant is named by its letters at N, in order (parent)
chain: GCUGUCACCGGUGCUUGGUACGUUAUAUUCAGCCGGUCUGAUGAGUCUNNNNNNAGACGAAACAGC

Variants of: B1
measurement.description: normalized RNA/DNA level with ligand (relative to sTRSVctl = 100) (log10 (% of sTRSVctl)); HEK293T overexpressing SLC46A1; ligand concentration (+) RNA-Seq: 6 mM; higher = less ribozyme self-cleavage, higher mRNA level
stated.conditions: with (6R,S)-folinic acid; ligand present: yes
Field: normalized RNA/DNA level with ligand (log10). Provide a value for each of the variants that follow.
One number for each entry.

mutation	value.reported
AUGUAG	1.99
CCCCCG	2
UCGUGU	2.03
GGUCCG	2.03
ACGACU	2.01

Consider the following items and state reported normalized RNA/DNA level with ligand (log10) for each.
1. UGCUAC
2. GUAAUA
3. CGCAAG
4. ACUCGC
5. UCUAUG
6. CAACUG
7. UAAGUC

2.02
1.97
2.02
2.01
2.02
2.02
2.04

Consider the following items and state reported normalized RNA/DNA level with ligand (log10) for each.
1. GUCGUG
2. ACAUCA

1. 2.04
2. 2.05
